Overview of reported self-cleavage across a group of variants:
B1: Twister Ribozyme (parent)
chain: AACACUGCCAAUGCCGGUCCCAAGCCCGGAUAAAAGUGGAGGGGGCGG

variants of: B1; assay: self-cleavage, relative activity (ratio to wild type); higher = more cleavage; co-transcriptional
The reply should be a number, written without any unit.

In the examples that follow, each entry is paired with its recorded self-cleavage.
Sequence Code	Reported Measurement
AACACUGCCAAUGCCGGUCCCAAGCCCGAAUAAAAGUGGUGGGGGCGG [G29A A40U]	0.204
AACACUGCCAAUGCCGGUUCCAAGCCGGGAUAAAAGUGGAGGGGGCGG [C19U C27G]	0.0975
AACACUGCCAGUGCCGGUCCCAAGCCCGGAUAAAAGUGCAGGGGGCGG [A11G G39C]	0.119
AACACUGCCAAUCCCGGUCCCAAGCCCGGAUAAAAGUGGAGGGGGCCG [G13C G47C]	0.179
AUCACUGCCAAUGCCGGUCCCAAGCCCGGAUAAAAGUGGAGGGGGCGA [A2U G48A]	0.353
AACACUGCCAAUGCCGCUCCCAAGCCCGGAUAAACGUGGAGGGGGCGG [G17C A35C]	0.0982

Exercise: Query: self-cleavage; subject: AACACUGCCAAUGCCGGUCCCAAGUCCGGAUAAAAGUCGAGGGGGCGG [C25U G38C]
Key: 0.847

Exercise: Give its self-cleavage value. Item: AACACUGCCAAGGCCGGUCCCAAGCCCGGAUGAAAGUGGAGGGGGCGG [U12G A32G]
Key: 0.914
